TESTED_TARGET: Serine/threonine-protein kinase haspin (Homo sapiens)
Sequence (Q8TF76 whole entry): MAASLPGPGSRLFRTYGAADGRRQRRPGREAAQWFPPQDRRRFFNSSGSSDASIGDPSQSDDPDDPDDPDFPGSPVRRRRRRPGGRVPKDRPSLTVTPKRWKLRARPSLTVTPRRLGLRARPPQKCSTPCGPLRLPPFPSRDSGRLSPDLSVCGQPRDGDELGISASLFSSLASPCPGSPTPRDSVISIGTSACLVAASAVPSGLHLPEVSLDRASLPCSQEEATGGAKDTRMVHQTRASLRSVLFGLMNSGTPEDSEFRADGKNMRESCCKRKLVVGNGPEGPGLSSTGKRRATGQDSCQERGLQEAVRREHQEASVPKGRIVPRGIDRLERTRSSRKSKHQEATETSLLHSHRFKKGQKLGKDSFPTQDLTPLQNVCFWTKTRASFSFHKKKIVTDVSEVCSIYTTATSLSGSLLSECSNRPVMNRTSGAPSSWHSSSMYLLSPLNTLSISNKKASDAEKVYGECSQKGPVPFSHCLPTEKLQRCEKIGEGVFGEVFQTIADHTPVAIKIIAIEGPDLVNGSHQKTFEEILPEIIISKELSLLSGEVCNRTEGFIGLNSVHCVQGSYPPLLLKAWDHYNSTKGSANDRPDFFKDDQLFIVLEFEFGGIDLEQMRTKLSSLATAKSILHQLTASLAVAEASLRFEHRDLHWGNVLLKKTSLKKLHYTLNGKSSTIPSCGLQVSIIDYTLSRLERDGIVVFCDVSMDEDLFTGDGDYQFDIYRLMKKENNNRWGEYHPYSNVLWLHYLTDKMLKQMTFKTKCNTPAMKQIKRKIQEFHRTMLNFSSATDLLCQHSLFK
PROTOCOL_DETAILS: Inhibition of human recombinant Haspin (471 to end residues) using RARTLSFAEPG as substrate after 40 mins by [gamma-33ATP] radiometric assay
OBSERVED_PROPERTY: IC50

Prompt line: Look at this compound and give its reported IC50. CN(C)c1ccc(C(=O)Nc2cccc(NC(=O)COc3ccc4c(=O)ccoc4c3)c2)cc1
Response line: > 10 µM

###

TESTED_TARGET: UniProt O75676
Sequence (O75676 whole entry): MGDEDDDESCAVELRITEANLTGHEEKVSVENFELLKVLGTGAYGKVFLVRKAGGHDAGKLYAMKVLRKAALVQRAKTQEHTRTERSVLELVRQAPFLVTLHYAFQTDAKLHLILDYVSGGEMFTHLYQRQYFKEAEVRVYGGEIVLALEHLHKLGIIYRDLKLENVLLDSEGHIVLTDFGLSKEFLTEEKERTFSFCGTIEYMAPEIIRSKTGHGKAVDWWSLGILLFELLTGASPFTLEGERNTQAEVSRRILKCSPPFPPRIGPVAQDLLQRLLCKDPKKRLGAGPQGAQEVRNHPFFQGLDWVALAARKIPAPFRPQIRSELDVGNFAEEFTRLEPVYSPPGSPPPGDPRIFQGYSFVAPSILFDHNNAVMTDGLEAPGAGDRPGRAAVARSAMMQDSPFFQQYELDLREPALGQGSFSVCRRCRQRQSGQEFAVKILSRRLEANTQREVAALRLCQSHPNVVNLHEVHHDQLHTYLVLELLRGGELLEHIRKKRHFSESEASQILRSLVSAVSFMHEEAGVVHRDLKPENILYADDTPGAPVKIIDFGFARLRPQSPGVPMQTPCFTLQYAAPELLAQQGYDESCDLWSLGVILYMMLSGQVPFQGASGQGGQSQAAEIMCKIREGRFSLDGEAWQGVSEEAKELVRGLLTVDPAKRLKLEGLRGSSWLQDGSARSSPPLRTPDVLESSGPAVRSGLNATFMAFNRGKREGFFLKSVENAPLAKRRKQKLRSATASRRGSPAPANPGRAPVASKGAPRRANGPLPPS
PROTOCOL_DETAILS: Inhibition of recombinant human MSK2 (2 to end residues) using GRPRTSSFAEGKK as substrate incubated for 40 mins in presence of [gamma-33ATP by radiometric scintillation counting analysis
pIC50: −log10 of the molar value.
OBSERVED_PROPERTY: pIC50

Prompt line: Query (compound): CN(C)c1ccc(C(=O)Nc2cccc(NC(=O)COc3ccc4c(=O)ccoc4c3)c2)cc1 ; field requested: pIC50
Response line: < 5.00

From: ChEMBL document CHEMBL4376834
